- targetOfAssay: Cytochrome P450 2C9 (Homo sapiens)
- Sequence (P11712 whole entry): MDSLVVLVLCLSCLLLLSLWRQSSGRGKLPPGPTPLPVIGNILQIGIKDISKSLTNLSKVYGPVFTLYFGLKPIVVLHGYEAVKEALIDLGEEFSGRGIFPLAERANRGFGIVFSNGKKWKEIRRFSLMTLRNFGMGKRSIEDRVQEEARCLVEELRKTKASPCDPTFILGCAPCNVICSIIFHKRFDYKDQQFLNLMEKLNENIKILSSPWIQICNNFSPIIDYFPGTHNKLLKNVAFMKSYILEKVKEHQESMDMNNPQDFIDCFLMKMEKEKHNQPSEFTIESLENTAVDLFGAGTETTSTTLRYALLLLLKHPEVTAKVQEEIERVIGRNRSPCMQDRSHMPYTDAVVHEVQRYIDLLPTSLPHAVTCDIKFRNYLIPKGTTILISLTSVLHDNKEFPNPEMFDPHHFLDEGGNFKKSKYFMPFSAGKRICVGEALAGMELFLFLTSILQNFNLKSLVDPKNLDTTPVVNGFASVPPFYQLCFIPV
- methodNotes: Inhibition of CYP2C9 in human liver microsomes by fluorescence assay
- Format: ADME, Microsome
pIC50: −log10 of the molar value.
observable: pIC50

- CN(C)CC(C)(C)Cn1c(CC(C)(C)C)nc2cc(/C=C/C(=O)NO)ccc21: < 4.60
- CCCCc1nc2cc(/C=C/C(=O)NO)ccc2n1CCN(CC)CC.Cl.Cl: < 4.60
- CCCCCCc1nc2cc(/C=C/C(=O)NO)ccc2n1CCN(C)C: 4.98

====

- methodNotes: AUC (0 to infinity) in Beagle dog at 2 mg/kg, iv
- Type: ADME, organism-based, Canis lupus familiaris
- Design: time infinity, dose 2 mg/kg, route intravenous
- conditions: plasma
observable: AUC(0-inf) (µM·h)

• CCCCc1nc2cc(/C=C/C(=O)NO)ccc2n1CCN(CC)CC.Cl.Cl = 3.22
